- ASSAY OVERVIEW: Displacement of [3H]YM-9151-2 from D2 like receptor in rat striatal membrane
- Assay type: cell membranes, Striatum
REPORTED METRIC: pKi
Interpret pKi as the negative base-10 log of the concentration measured in mol/L.

Oc1ccc(N2CCN(Cc3cn(-c4ccc(Cl)cc4)nn3)CC2)cc1 ... 5.77

Could you now consider this next compound?
Returns the measured pKi for the input compound. Input: `Clc1ccc(-n2cc(CN3CCN(c4ccccc4)CC3)nn2)cc1`
6.02

###

- TESTED ON: UniProt:P14842
- Sequence (P14842 whole entry): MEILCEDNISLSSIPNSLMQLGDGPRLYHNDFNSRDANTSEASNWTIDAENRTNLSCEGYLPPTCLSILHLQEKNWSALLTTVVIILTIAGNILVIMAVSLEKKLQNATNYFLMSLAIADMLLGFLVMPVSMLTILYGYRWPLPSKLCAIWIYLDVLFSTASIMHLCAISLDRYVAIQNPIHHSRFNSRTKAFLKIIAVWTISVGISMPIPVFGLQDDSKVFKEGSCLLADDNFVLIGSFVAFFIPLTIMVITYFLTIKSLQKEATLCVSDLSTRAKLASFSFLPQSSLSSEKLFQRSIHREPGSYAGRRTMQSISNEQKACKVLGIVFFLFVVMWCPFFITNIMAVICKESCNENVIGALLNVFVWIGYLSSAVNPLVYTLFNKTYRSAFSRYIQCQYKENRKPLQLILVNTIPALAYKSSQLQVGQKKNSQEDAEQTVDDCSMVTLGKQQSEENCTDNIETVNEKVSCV
REPORTED METRIC: pKi
Interpret pKi as the negative base-10 log of the concentration measured in mol/L.

Returns the measured pKi for the input molecule. Input: `Clc1ccc(-n2cc(CN3CCN(c4ccccc4)CC3)nn2)cc1`
4.96
